# Tested on: K562 cells
# ASSAY_SUMMARY: Proliferation assay
# Assay type: cell-based
# RUN_PARAMETERS: Homo sapiens, K562, 72 h
Reported GI50 values are given for each entry in this list.
State just the number; it will be interpreted in µM.

[[record]]
line_notation = "Cc1nc(F)ccc1-c1cc(Cn2ccn(C)c2=N)cc(C(=O)NCc2ccc(Cl)c(Cl)c2)c1"
units_symbol = "µM"
reported_measurement = 25.4


Now consider a different molecule.
Problem: # lookup: GI50 of `Cc1nc(F)ccc1-c1cc(C(=O)NCc2ccc(Cl)c(Cl)c2)ccc1Cn1ccn(C)c1=N`
Result: 31.7

---

# Test system: HL60 cells
# ASSAY_SUMMARY: Proliferation assay
# Type: cell-based
# RUN_PARAMETERS: Homo sapiens, HL-60, 72 h
EXPERIMENTAL_ENDPOINT: GI50

Answered examples (3):
[[record]]
line_notation = "COc1cc(CNC(=O)c2cccc(CNC3=NCCN3)c2F)cc(OC)c1"
reported_measurement = "> 50 µM"

[[record]]
line_notation = "Cc1nc(F)ccc1-c1cc(Cn2ccn(C)c2=N)cc(C(=O)NCc2ccc(Cl)c(Cl)c2)c1"
reported_measurement = "14.8 µM"

[[record]]
line_notation = "COc1cc(CNC(=O)c2ccc(F)c(CNC3=NCCN3)c2)cc(OC)c1"
reported_measurement = "> 50 µM"


Now consider a different compound.
Problem: # lookup: GI50 of `Cc1nc(F)ccc1-c1cc(C(=O)NCc2ccc(Cl)c(Cl)c2)ccc1Cn1ccn(C)c1=N`
Result: > 50 µM

Taken from paper PMC6448596.
